- Method notes: soluble fraction after stress (log2 fold change); higher = more stays soluble; pooled small domains, quantitative proteomics
- Particulars: stress: pH 4
Value kind: soluble fraction (log2)
A bare number is all that is needed in reply.

Reference set (2 entries):
# Macromolecule sequence, soluble fraction (log2)
measured = [
    ("HMSTTYLNEGDRITLTDSVNIRTSMSETADRVGLAYQGDVVTVIMSYAEGWTKVSWNGQTGYAKTEYL", -0.0679),
    ("HMADKNIIGVLSAADNLGKVRITTANGEKYIITVPDGLSDIVKTYWEEEVSVKYVIEKRRKILVDIDG", -0.47),
]

Next, consider the following sequence.
Q: Item `HMGPAYEKIVANGQTFYRYNVKKGEGLMAVSRTFNVSVNDILKYNPSAASGLKDGQELLIPVIDDA` has what recorded soluble fraction (log2)?
Result: -0.29

* * *

- Method notes: soluble fraction after stress (log2 fold change); higher = more stays soluble; pooled small domains, quantitative proteomics
- Particulars: stress: pH 4
Dear colleague, classification is by soluble fraction (log2), with ranges listed here: low: < -0.8; middle: ≥ -0.8 and < 0.02; high: ≥ 0.02

# Macromolecule sequence, Category
data = [
    ("HMAEIIVHEINRHLGESDEPVEFPEERREEAVAELLKNFHNDDAFRKMDDGKYEVALDGEAVREAARSLLA", "middle"),
    ("HMSSRSLTYSDFIERVDAGQVDAVTLDGERIVIRAKDGNTYVAIKPQGEDVTGSLTRDLIAKGVDVEAEPQ", "middle"),
    ("HMTAQGDSSDAVQRAITEILRHEDPSHPFSDQQLVIKLRTMDISVSRRTVTKYRKLLHIPSSTHRK", "high"),
    ("HMEGTVQQDKFDAYKAKFEDAISNDLNTSMAITIIYDLLKDDMNDKTKLALINDFDKVLSLNLTTA", "low"),
    ("HMDYNLTKNQKIVFNLLQNSGEPLKAYTILESLKREGLKSPLQVYRALDKLVELGIIHKIESQNSFI", "high"),
    ("HMPAEEVPLYKAVVVTTPPNRLRVRFSPAGDFKRWLQSGEEVDVYQELGDWRRIEPNGWSSAEWLQRVG", "middle"),
]

Q: Which category fits this record: `HMSPAVSLITGKLGAETYYKQGLKKAKEKDYEGALDDLIKAYEFFPDKKIKTQVDKLASFLGKPPIL`
Result: high

Q: Classify this sequence: `HMQKDYKTRLQEYYAKVGKKVNYMDSSTGPDHDKKFQTQVFLDKEIIGVGEGKSKKSSQQEAAKQALEKI`
Result: high

Q: Kindly identify the class of `HMTNIELYQRLLNLGFTPAQAKILLVQYDETRLTDNLNYVDFKKQQGNIENLPAYTTTIIKKDVRL` .
Result: high

Q: Which category does the recorded soluble fraction (log2) put `HMKSPVKLILRGSIYHIKISAVVNGQRIFVRESSHTTDKREAEQYANKRFAQLVEETEFRTN` in?
Result: low

Q: Dear colleague, I would appreciate it if you could identify the bin for `HMVITISEADVSGTYTKSITQGDWKYIRTWTPFEDERLYDLAKDPMELRDLAPAAPSKLAELRELLSALVS` and reply at your convenience.
Result: low

* * *

- Method notes: soluble fraction after stress (log2 fold change); higher = more stays soluble; pooled small domains, quantitative proteomics
- Particulars: stress: pH 4
Measured soluble fraction (log2) by item
// keep it numeric: no unit symbol after the value

Example entries begin here.
# Macromolecule sequence, Assay result
measured = [
    ("HMDNVLGKSGKVIFVNEEINSYGRAFIPGHGEWNIRTKSDQNIHINDGIKVIERDGITLVVEL", -1.3),
    ("HMEELGKVRPELDGNEIAKVLGITPGPVLGRAYTYLLSVRLDEGPIGPDVARERLLAWWAEQPES", -2.01),
    ("HMTGIQDVPALETRRVGNTFFFDRATDVQVYDLQGRLLQQARKVTSVSIGHLQQGVYVLTDGRASVKVQ", -0.7),
]

Now look at this one.
Q: Reported soluble fraction (log2), sequence `HMTAYEGLPVTLIIDGRVFQQNLQKMNLSVEWLRLELKKFGVTNLKEVLFASLDTEGKLFYQLKT` : ____
Result: -0.878

Origin of measurements: the domain aggregation screens of Martell et al. (2025)
